Values were extracted from patent US20240270821A1.

biological target: hGcgR (Homo sapiens, UniProt P47871); experiment: Functional cAMP activation in the presence of 0.1% casein (no HSA); format: cell-based; settings: in the presence of 0.1% casein (no HSA); geometric mean; read-out: Relative cAMP EC50, hGcgR;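 note: intracellular cAMP rise after 30 min at 37 °C, read by HTRF against a cAMP standard curve, scaled from buffer only (0%) to maximal control ligand response (100%)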
Sequence (P47871 26-477): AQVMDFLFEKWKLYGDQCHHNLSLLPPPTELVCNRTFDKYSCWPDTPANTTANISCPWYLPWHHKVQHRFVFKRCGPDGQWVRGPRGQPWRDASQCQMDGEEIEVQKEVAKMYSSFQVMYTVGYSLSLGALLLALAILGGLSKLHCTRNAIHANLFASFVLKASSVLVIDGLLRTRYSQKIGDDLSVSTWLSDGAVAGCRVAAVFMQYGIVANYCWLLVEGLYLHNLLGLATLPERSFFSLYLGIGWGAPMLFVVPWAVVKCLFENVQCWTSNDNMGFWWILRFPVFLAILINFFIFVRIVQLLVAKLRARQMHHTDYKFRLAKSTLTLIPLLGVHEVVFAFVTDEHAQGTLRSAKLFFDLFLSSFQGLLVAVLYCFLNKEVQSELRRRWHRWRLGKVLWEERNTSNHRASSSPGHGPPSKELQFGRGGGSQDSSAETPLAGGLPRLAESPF
pEC50: −log10 of the molar value. Starred links: 1 amine or outer side, 2 acyl side, 3 side chain; linkers in the order of their positions; H or OH if unused. Non-standard residues stand in square brackets, D forms with d. Groups on a side chain read outwards from the residue. No end group written: not given here. *: point of attachment. C20 diacid = O=C(O)CCCCCCCCCCCCCCCCCCC(=O)*; C18 diacid = O=C(O)CCCCCCCCCCCCCCCCC(=O)*; αMePhe(2-F) = C[C@](N)(Cc1ccccc1F)C(=O)O; γGlu = O=C(O)[C@H](CCC(=O)[*:2])N[*:1]; NMeY = CN[C@@H](Cc1ccc(O)cc1)C(=O)O; αMe4Pal = C[C@](N)(Cc1ccncc1)C(=O)O; αMeY = C[C@](N)(Cc1ccc(O)cc1)C(=O)O; αMeF = C[C@](N)(Cc1ccccc1)C(=O)O; 4Pal = N[C@@H](Cc1ccncc1)C(=O)O; αMeL = CC(C)C[C@](C)(N)C(=O)O; αMeS = C[C@](N)(CO)C(=O)O; Orn = NCCC[C@H](N)C(=O)O; AEEA = NCCOCCOCC(=O)O; Aib = CC(C)(N)C(=O)O
# pEC50 listing for each entry below
experimental readout: pEC50

substance | experimental readout | assay value
Y[Aib]QGT[αMePhe(2-F)]TSDYSILLDKQAAK([AEEA-γGlu-C20 diacid])EFIEYLIEGGPSSGAPPPSEG-NH2 [Example 340] | pEC50 | 8.69
H-Y[Aib]QGTFTSDFSK[αMeL]LDKK([AEEA-γGlu-C18 diacid])AQ[Aib]AFIEYLLE[Aib]GPSSGEPPPSEG-NH2 [Example 46] | pEC50 | 8.82
Y[Aib]QGTFTSD[4Pal]SQ[αMeL]LDKK([Glu-Glu-γGlu-C18 diacid])AQ[αMe4Pal]AFIEYLIE[Aib]GPSSGAPPPSGS-NH2 [Example 895] | pEC50 | 8.33
H-Y[Aib]QGT[αMePhe(2-F)]TSD[4Pal][αMeS]I[αMeL]LD[Orn]K([AEEA-γGlu-C18 diacid])AQ[αMe4Pal]EFI[dE][αMeY]LIEGGPSSGAPPPSGE-NH2 [Example 1140] | pEC50 | 8.81
H-Y[Aib]QGTFTSDFS[Orn][αMeL]LDKK([AEEA-γGlu-C18 diacid])AQ[Aib]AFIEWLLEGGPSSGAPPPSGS-NH2 [Example 168] | pEC50 | 8.26
H-Y[Aib]QGTFTSDYSK[αMeL]LDKK([AEEA-γGlu-C18 diacid])AQ[Aib]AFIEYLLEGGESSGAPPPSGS-NH2 [Example 358] | pEC50 | 8.56
H-[NMeY][Aib]QGT[αMeF]TSDYSILLDKQAAK([AEEA-AEEA-γGlu-C20 diacid])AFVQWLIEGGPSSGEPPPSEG-NH2 [Example 302] | pEC50 | 8.35
H-Y[Aib]QGTFTSDFS[Orn][αMeL]LDKK([AEEA-γGlu-C18 diacid])AQ[Aib]AFIEYLLEGGPSSGAPPPEGS-NH2 [Example 130] | pEC50 | 8.43
H-Y[Aib]QGT[αMePhe(2-F)]TSD[4Pal][αMeS]I[αMeL]LD[Orn]K([AEEA-γGlu-γGlu-C18 diacid])AQ[αMe4Pal]EFI[dE][αMeY]LIEGGPSSGEPPPSGSE-NH2 [Example 1179] | pEC50 | 8.54
H-Y[Aib]QGTFTSDFS[Orn][αMeL]LDKK([AEEA-γGlu-C18 diacid])AQ[Aib]AFIEYLLE[Aib]GPSS[Aib]APPPSGS-NH2 [Example 238] | pEC50 | 8.56
H-Y[Aib]QGTFTSDFS[Orn][αMeL]LDKK([AEEA-γGlu-C18 diacid])AQ[αMe4Pal]AFIE[αMeY]LIEGGPSSGAPPPSGS-NH2 [Example 845] | pEC50 | 9.20
H-Y[Aib]QGTFTSD[4Pal]SQ[αMeL]LD[Orn]K([γGlu-γGlu-C18 diacid])AQ[αMe4Pal]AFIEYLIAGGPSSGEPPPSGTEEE-NH2 [Example 986] | pEC50 | 8.31
H-Y[Aib]QGTFTSDYSI[αMeL]LDKIAAK([AEEA-AEEA-γGlu-C20 diacid])[Orn]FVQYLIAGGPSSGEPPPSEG-NH2 [Example 308] | pEC50 | 7.85

---

molecular target: hGIPR (Homo sapiens, UniProt P48546); assay: Functional cAMP activation in the presence of 0.1% casein (no HSA); type: cell-based; settings: in the presence of 0.1% casein (no HSA); geometric mean; read-out: Relative cAMP EC50, hGIPR;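 note: intracellular cAMP rise after 30 min at 37 °C read by HTRF against a standard curve, scaled between buffer alone (0%) and top control ligand concentration (100%), four-parameter fit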
Sequence (P48546 22-466): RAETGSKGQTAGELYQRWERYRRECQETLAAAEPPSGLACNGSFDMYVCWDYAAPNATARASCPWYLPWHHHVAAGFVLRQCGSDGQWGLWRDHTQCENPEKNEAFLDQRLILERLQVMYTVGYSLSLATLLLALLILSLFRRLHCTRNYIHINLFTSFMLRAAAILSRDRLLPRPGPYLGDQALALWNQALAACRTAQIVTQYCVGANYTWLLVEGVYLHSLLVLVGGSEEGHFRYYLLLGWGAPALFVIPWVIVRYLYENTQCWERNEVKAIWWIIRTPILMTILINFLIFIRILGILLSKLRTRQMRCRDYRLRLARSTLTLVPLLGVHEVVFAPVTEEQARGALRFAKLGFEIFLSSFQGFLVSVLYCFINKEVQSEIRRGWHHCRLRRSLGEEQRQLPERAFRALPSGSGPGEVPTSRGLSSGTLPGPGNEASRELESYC
pEC50: −log10 of the molar value. Starred links: 1 amine or outer side, 2 acyl side, 3 side chain; linkers in the order of their positions; H or OH if unused. Non-standard residues stand in square brackets, D forms with d. Groups on a side chain read outwards from the residue. No end group written: not given here. *: point of attachment. C18 diacid = O=C(O)CCCCCCCCCCCCCCCCC(=O)*; γGlu = O=C(O)[C@H](CCC(=O)[*:2])N[*:1]; αMe4Pal = C[C@](N)(Cc1ccncc1)C(=O)O; 4Pal = N[C@@H](Cc1ccncc1)C(=O)O; αMeL = CC(C)C[C@](C)(N)C(=O)O; Orn = NCCC[C@H](N)C(=O)O; Dap = NC[C@H](N)C(=O)O; AEEA = NCCOCCOCC(=O)O; Aib = CC(C)(N)C(=O)O

substance | pEC50
H-Y[Aib]QGTFTSDFS[Orn][αMeL]LDKK([AEEA-AEEA-γGlu-C18 diacid])AQ[Aib]AFIEYLLE[Aib]G[4Pal]SSGAPPPSGS-NH2 [Example 183] | 10.12
H-Y[Aib]QGTFTSD[4Pal]SQ[αMeL]LDKK([AEEA-γGlu-C18 diacid])AQ[Aib]AFIEYLLE[dA]GPSS[Aib]APPPSGT-NH2 [Example 824] | 9.91
H-Y[Aib]QGTFTSDFS[Orn][αMeL]LDKK([AEEA-γGlu-C18 diacid])AQ[αMe4Pal]AFIEYLIE[Aib]GESSGAPPPSGS-NH2 [Example 229] | 9.75
H-Y[Aib]QGTFTSD[4Pal]SQ[αMeL]LDKK([γGlu-γGlu-C18 diacid])AQ[αMe4Pal]AFIEYLIE[Aib]GPSSGAPPPSGSEE-NH2 [Example 899] | 9.88
Y[Aib]QGTFTSDFS[Orn][αMeL]LDKK([AEEA-γGlu-γGlu-C18 diacid])AQ[Aib]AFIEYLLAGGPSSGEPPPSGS-NH2 [Example 153] | 9.66
H-Y[Aib]QGTFTSD[4Pal]SR[αMeL]LDKK([AEEA-γGlu-C18 diacid])AQ[Aib]AFIEYLIE[Aib]GESSGAPPPSGS-NH2 [Example 187] | 9.95
H-Y[Aib]QGTFTSDFS[Dap][αMeL]LDKK([AEEA-γGlu-C18 diacid])AQ[Aib]AFIEYLLE[Aib]GPSSGAPPPSGS-NH2 [Example 134] | 9.82
